These measurements were taken from ChEMBL document CHEMBL1156154.

Assay: Ratio of drug level in brain to plasma in Sprague-Dawley rat at 10 mg/kg, po
Assay type: ADME, organism-based
Set-up: dose 10 mg/kg, route oral
measured_endpoint: Kp

* O=C(O)c1cn(Cc2ccc(-n3cccn3)cc2)c2ccsc2c1=O | 0.07

P. Cc1ccn(-c2ccc(Cn3cc(C(=O)O)c(=O)c4ccncc43)cc2)n1
Q. Cn1cc(-c2ccc(Cn3cc(C(=O)O)c(=O)c4sccc43)nc2)cn1
Pick the one with the larger Kp: P vs Q // return label of chosen record
P
(P: 0.15, Q: 0.02)

###

Test: Clearance in rat at 10 mg/kg, po and 2 mg/kg, iv
Assay type: ADME, organism-based
Conditions: in vivo
measured_endpoint: clearance (mL/min/kg)
# output: bare number, implied unit mL/min/kg

Tell me clearance reported for O=C(O)c1cn(Cc2ccc(-n3cccn3)cc2)c2ccsc2c1=O
6.8
